These measurements were taken from PubChem BioAssay (NCI).

Listing of recorded growth by entry.
Test system: TK-10 renal
measurement_protocol: NCI-60 one-dose screen, 48 h (100 = growth as untreated, 0 = no growth, -100 = all killed)
experimental_setup: 10 µM unless noted
The panel holds about 83,000 compounds, 20% with a hit somewhere; the sample as a whole holds those more often.
Numbers only here, please. The scale is %.

Example compounds with recorded growth:
Cc1sc2nc(NCCN)[nH]c(=O)c2c1C | 96.9
CCN(CC)CCCC(Cc1ccccc1)Nc1c2ccc(Cl)cc2nc2ccc(OC)cc12 (stereo unspecified) | -2.6
CCN1C(=O)N(c2ccccc2)C2NC(=S)N(/N=C/C=C/c3ccccc3OC)C21 (stereo unspecified) | 75.7
Cc1cc(=O)n(C(=S)Nc2ccc(Cl)cc2)c2cc(O)ccc12 | 116
O=C(c1cccc(N2CCOCC2)n1)c1c[nH]c2ccccc12 | 120

// next entry
Looking up "O=C1/C(=C/c2ccccn2)SC(=S)N1N1CCOCC1" , I see its growth listed as 98.5
